All figures here come from patent US20230102344A1.

pKd values by entry
Molecular target: human TCRvβ (BIM0444) (human)
Sequence (A0A0K0K1A5 22-114): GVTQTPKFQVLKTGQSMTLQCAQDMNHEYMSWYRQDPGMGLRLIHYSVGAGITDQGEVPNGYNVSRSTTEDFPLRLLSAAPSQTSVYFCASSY
Assay: SPR (Biacore): antibody captured via anti-human Fc on CM5, BIM0444 as analyte, 1:1 fit
Please note pKd is a logarithmic value: minus log10 of concentration in mol/L. Answer with that number alone.

A-H.67 (scFv) scFv: QVQLVQSGAEVKKPGSSVKVSCKASGTDFKLTYIHWVRQAPGQGLEWMGRIFPGSGNVKYNEKFKGRVTITADTSTSTAYMELSSLRSEDTAVYYCAVSYYSYDVLDYWGQGTTVTVSSGGGGSGGGGSGGGGSGGGGSDIQMTQSPSFLSASVGDRVTITCKASQNVDNRVAWYQQKPGKAPKALIYSSSHRYKGVPSRFSGSGSGTEFTLTISSLQPEDFATYFCQQFKSYPLTFGQGTKLEIK	7.70
A-H.63 (scFv) scFv: QVQLVQSGAEVKKPGSSVKVSCKASGHDFRLTYIHWVRQAPGQGLEWMGRVYAGSGNTKYNEKFKGRVTITADTSTSTAYMELSSLRSEDTAVYYCAVSYYSYDVLDYWGQGTTVTVSSGGGGSGGGGSGGGGSGGGGSDIQMTQSPSFLSASVGDRVTITCKASQNVEDRVVWHQQKPGKAPKALIYSSSHRYKGVPSRFSGSGSGTEFTLTISSLQPEDFATYFCQQFKSYPLTFGQGTKLEIK	9.56
A-H.57 (scFv) scFv: QVQLVQSGAEVKKPGSSVKVSCKASGHDFRLTYIHWVRQAPGQGLEWMGRVSAGSGNTKYNEKFKGRVTITADTSTSTAYMELSSLRSEDTAVYYCAVSYYSYDVLDYWGQGTTVTVSSGGGGSGGGGSGGGGSGGGGSDIQMTQSPSFLSASVGDRVTITCKASQNVGDRVVWHQQKPGKAPKALIYSSSHRYKGVPSRFSGSGSGTEFTLTISSLQPEDFATYFCQQFKSYPLTFGQGTKLEIK	9.33

Okay, now this binder:
Inquiry: # return recorded pKd for input A-H.62 (scFv) scFv: QVQLVQSGAEVKKPGSSVKVSCKASGHDFRLTYIHWVRQAPGQGLEWMGRVSAGSGNVKYNEKFKGRVTITADTSTSTAYMELSSLRSEDTAVYYCAVSYYSYDVLDYWGQGTTVTVSSGGGGSGGGGSGGGGSGGGGSDIQMTQSPSFLSASVGDRVTITCKASQNVADRVVWHQQKPGKAPKALIYSSSHRYKGVPSRFSGSGSGTEFTLTISSLQPEDFATYFCQQFKSYPLTFGQGTKLEIK
Reply text: 9.35
